System: porcine aortic smooth muscle cells
Test: Inhibition of serum-stimulated porcine aortic smooth muscle cell proliferation (3H-thymidine)
Assay type: cell-based
Details: Sus scrofa, 24-36 hours at 37° C., assayed at 1, 10, and 100 μM, read-out: Porcine Smooth Muscle Cell Antiproliferation IC50 or % Inhibition at × Concentration, Serum
pIC50: −log10 of the molar value.
If the reported pIC50 equals or exceeds 5, assign Fulfilled. If not, assign Not fulfilled.

In [3]: df
Out[3]:
                                   molecule    label_value
0  COC(=O)c1ccc(CSc2nc3ccccc3[nH]2)cc1 [Example 4]      Fulfilled
1  COC(=O)c1ccc(CSc2nc3cc([N+](=O)[O-])ccc3[nH]2)cc1 [Example 5]  Not fulfilled

query: Quick check, pIC50 >= 5? Fc1cc2[nH]c(SCc3ccc(Cl)c(Cl)c3)nc2cc1Cl [Example 1]
result: Not fulfilled

###

Tested on: porcine aortic smooth muscle cells
Test: Inhibition of PDGF-stimulated porcine aortic smooth muscle cell proliferation (3H-thymidine)
Format: cell-based
Settings: Sus scrofa; stimulated with human recombinant PDGF-AB; 24-36 hours at 37° C.; assayed at 1, 10, and 100 μM; read-out: Porcine Smooth Muscle Cell Antiproliferation IC50 or % Inhibition at × Concentration, PDGF
assay_readout: IC50 (µM)
Form entry: value (µM) — number only.

The examples below pair each entry with its known result.
>>> df
                                   smi  recorded_value
0  COC(=O)c1ccc(CSc2nc3ccccc3[nH]2)cc1            3.74
1     Clc1ccc(CSc2nc3ccccc3[nH]2)cc1Cl             4.4

API: the following record is the query input.
query: I have this molecule here, COC(=O)c1ccc(CSc2nc3cc([N+](=O)[O-])ccc3[nH]2)cc1 , and I need its recorded IC50.
result: 6.17
